These data points were gathered from patent US20080293712A1.

- measuredOn: PDK-1 (Homo sapiens, UniProt O15530)
- Sequence (O15530 1-556): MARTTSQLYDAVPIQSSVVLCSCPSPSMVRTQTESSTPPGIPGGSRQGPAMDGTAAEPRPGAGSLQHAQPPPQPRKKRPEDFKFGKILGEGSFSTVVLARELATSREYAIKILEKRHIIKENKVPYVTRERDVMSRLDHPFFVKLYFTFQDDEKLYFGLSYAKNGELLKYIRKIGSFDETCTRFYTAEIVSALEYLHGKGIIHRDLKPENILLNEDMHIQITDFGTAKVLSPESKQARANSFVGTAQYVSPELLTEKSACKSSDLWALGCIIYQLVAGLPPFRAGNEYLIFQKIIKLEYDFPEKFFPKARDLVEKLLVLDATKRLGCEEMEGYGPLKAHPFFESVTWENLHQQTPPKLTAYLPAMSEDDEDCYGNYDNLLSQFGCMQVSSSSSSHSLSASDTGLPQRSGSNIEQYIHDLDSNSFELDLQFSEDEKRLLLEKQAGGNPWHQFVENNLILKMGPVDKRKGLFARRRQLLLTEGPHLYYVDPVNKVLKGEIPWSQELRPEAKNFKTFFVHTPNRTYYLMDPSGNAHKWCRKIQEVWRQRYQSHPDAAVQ
- assayMethodText: PDK-1 kinase inhibition ELISA assay (phosphorylation of His6-tagged SGK1 S422D by PDK-1)
- Assay type: biochemical
- appliedConditions: PDK-1 ELISA, Table 11; read-out: Average IC50
pIC50: −log10 of the molar value.
reportedEndpoint: pIC50

COCCN(C)c1cc2ncc3c(N)nc(-c4cncc(OC[C@@H](N)Cc5ccccc5)c4)cc3c2cc1OC [Ia-38]; 7.16
COc1cc2ncc3c(N)nc(-c4cncc(OC[C@@H](N)CSc5nccs5)c4)cc3c2cc1OC [Ib-166]; 8.52
COc1cc2ncc3c(N)nc(-c4cncc(OC[C@@H](N)CSc5ncc(CO)n5C)c4)cc3c2cc1OC [Ib-167]; 8.30

(a) COc1cc2ncc3c(N)nc(-c4cncc(OC[C@@H](N)CSc5ccccn5)c4)cc3c2cc1OC [Ib-159]
(b) COc1cc2ncc3c(N)nc(N4CC[C@@H](O)C4)cc3c2cc1OC [Ib-65]
Please indicate which item has the smaller measured pIC50: a versus b # answer = label of selected item
b
(b: 5.34, a: 8.52)

(I) COc1cc2ncc3c(N)nc(-c4cncc(OC[C@@H](N)CNc5ccc(F)cc5F)c4)cc3c2cc1OC [Ib-85]
(II) COc1cc2ncc3c(N)nc(-c4cncc(OC[C@@H](N)CNC5CCCCC5)c4)cc3c2cc1OC [Ib-89]
Kindly identify the item with the lower pIC50 figure among these two: I and II To answer, give the label that identifies your chosen option.
II

---

- measuredOn: PKA (Homo sapiens)
- assayMethodText: PKA kinase inhibition, Z'-LYTE FRET assay
- Type: biochemical
- appliedConditions: 20 μM ATP
reportedEndpoint: IC50

Completed entries (count: 5):
COc1cc2c(cc1OCCCN1CCCC1)ncc1c(N)nc(-c3cccnc3C)cc12 [Ia-9]; > 10 µM
COc1cc2c(cc1O)ncc1c(N)nc(-n3ccnc3)cc12 [Ia-33]; 2.5 µM
COc1cc2ncc3c(N)nc(-c4cncc(OC5CCNCC5)c4)cc3c2cc1OC [Ib-40]; > 4 µM
COc1cc2c(cc1OCCCCl)ncc1c(N)nc(-n3ccnc3)cc12 [Ia-17]; > 10 µM
COc1cc2c(cc1OCCCl)ncc1c(N)nc(-n3ccnc3)cc12 [Ia-21]; > 20 µM

Bench note: what IC50 did COc1cc2c(cc1N1CCC(N3CCCC3)CC1)ncc1c(N)nc(-c3cccnc3)cc12 [Ia-20] show?
> 20 µM

Given the compound CCN1CCN(CC/C=C/c2ccc3c(c2)ncc2c(N)nc(-n4ccnc4)cc23)CC1 [Ia-25] , what is its reported IC50?
1.25 µM

# lookup: IC50 of COc1cc2ncc3c(N)nc(-c4cncc(O[C@@H]5CCNC5)c4)cc3c2cc1OC [Ib-58]
0.14 µM

Quick one: IC50 of COc1cc2c(cc1OCCN1CCCC1)ncc1c(N)nc(-n3ccnc3)cc12 [Ia-12] ?
> 10 µM
